molecules and their reported inhibition
Test: PhoP regulon inhibitors, Salmonella typhi PhoP promoter GFP reporter, confirmatory (AID 1850);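 note: 0% = induced wells with vehicle and 100% = uninduced wells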
Details: fluorescence, 4 h, at 50 µM, hits give high values
The campaign covered roughly 310,000 compounds. About 1,000 (0.32%) were called active. Not all results are given here. Entries with a potency or affinity are not part of this list.
test.readout: inhibition (%)

O=C(c1ccc(-n2cncn2)c([N+](=O)[O-])c1)N1CCN(S(=O)(=O)c2ccc(F)c(F)c2)CC1 :: 9.27
CN1CCN(c2ccc(NC(=O)c3ccc(Br)o3)cc2)CC1 :: -0.39
COc1ccc(-c2cc(C(=O)NCC3CCCO3)c3ccccc3n2)c(OC)c1 (stereo not drawn) :: -4
COc1cccc(-c2nc(NCC3CCCO3)c3ccccc3n2)c1O (stereo not drawn) :: 0.02
COc1ccccc1C(=O)N1CCc2ccccc21 :: -2.54
Cc1ccc(-c2noc(CSc3nnc(CCc4ccccc4)n3-c3ccccc3)n2)cc1 :: -7.22
c1csc(CNCc2ccncc2)c1 :: 1.76
COc1ccccc1Nc1nc(NCC2CCCO2)c2ccccc2n1 (stereo not drawn) :: 29.6
Cc1cc(C)c2c(N)c3cccc(C)c3nc2n1 :: -7.17
COc1ccc(C)cc1Nc1nc(N)c2ccccc2n1 :: 2.42
Fc1ccc(CNCc2ccccc2Cl)cc1 :: 10.6
Oc1ccccc1-c1nc(NCC2CCCO2)c2ccccc2n1 (stereo not drawn) :: -0.56
O=C1CCC([N+](=O)[O-])C(c2cc3c(cc2Cl)OCO3)N1 (stereo not drawn) :: 3.32
